Test system: ERK5;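 further: KINOMEscan kinase panel screen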
Construct: gene MAPK7
protocol.conditions: concentration: 1 μM, replicates: in singlicate; n = 1
parameter: %Inh (%)
Please respond with the number in % and leave the unit unwritten.

What value of measured %Inh is listed for Cc1cc(-c2ccnc(Nc3cccc(C#N)c3)n2)cc(C)c1O [GSK1440913] ?
0

Any idea what its %Inh is? The compound is CSc1ccc(NC2=C(c3ccc(Cl)cc3)C(=O)NC2=O)cc1 [SB-317658]
0

Could you tell me which %Inh is on file for CN1CCN(Cc2ccc(NC(=O)Nc3ccc(N(C)c4ccnc(Nc5ccc(CS(C)(=O)=O)cc5)n4)cc3)cc2)CC1.Cl [GW827654] ?
0
